# Study system: human ether-à-go-go-related gene (hERG) potassium channel (human, UniProt Q12809);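 further: peak tail current of the secondary pulse compared with the same well before compound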
# Sequence (Q12809 whole entry, looked up): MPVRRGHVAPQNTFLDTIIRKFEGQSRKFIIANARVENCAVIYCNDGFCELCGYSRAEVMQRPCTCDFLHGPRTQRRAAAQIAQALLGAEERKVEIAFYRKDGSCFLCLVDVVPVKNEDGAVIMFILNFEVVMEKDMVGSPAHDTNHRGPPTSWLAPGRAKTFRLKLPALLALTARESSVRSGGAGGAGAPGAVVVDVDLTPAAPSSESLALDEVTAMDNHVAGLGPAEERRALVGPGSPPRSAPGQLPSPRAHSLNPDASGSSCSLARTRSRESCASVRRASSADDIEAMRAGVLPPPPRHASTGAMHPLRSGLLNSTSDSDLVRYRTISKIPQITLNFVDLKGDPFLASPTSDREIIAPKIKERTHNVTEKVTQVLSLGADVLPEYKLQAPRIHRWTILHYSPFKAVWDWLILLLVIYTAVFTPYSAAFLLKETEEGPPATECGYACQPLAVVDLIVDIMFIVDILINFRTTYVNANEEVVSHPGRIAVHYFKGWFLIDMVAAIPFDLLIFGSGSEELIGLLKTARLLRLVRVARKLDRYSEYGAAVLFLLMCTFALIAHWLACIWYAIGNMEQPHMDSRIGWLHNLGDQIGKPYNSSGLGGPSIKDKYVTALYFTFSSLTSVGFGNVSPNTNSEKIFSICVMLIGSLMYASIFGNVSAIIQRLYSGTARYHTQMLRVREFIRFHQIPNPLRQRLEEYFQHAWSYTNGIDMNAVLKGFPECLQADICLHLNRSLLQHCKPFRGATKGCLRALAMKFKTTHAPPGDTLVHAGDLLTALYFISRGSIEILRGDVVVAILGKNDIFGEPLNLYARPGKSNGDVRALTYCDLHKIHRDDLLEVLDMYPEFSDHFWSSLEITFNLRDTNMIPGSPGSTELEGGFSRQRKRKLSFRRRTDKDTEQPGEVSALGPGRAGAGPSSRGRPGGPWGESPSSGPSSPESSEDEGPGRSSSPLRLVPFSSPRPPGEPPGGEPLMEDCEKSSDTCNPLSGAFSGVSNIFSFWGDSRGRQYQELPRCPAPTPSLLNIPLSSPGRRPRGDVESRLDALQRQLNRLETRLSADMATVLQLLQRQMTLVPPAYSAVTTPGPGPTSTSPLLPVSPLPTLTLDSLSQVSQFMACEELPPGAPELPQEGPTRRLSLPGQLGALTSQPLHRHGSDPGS
# Method: primary screen, population patch clamp on CHO cells stably expressing hERG; higher = less effect of the substance
Screen size: about 310,000 compounds; about 14,000 (4.5%) showed an effect of 50% or more. The effect is printed as a negative number. The full list was thinned out, with strong results kept by preference.
Outcome label depends on hERG current change (%, negative = inhibition) at 10uM relative to -10%: at/above gives fulfilled, below gives not fulfilled.

Past entries and their recorded results:
1. Cc1c(C(=O)Nc2ccc(-c3nnc4n3CCCCC4)cc2)oc2c1ccc1ccccc12; not fulfilled
2. O=C(Nc1ccc(-c2nnc3n2CCCCC3)cc1)c1ccco1; fulfilled
3. O=C(Nc1ccc(-c2nnc3n2CCCCC3)cc1)c1cc2ccccc2o1; not fulfilled

Does hERG current change (%, negative = inhibition) at 10uM meet or surpass -10% for O=C(Nc1ccc(CN2CCOCC2)cc1)c1ccc(-c2cccc([N+](=O)[O-])c2)o1 ?
not fulfilled

API: above_or_equal(metric=hERG current change (%, negative = inhibition) at 10uM, cutoff=-10%) for item CCOC(=O)NC(=O)CSc1nc2ccc(C)cc2[nH]1
fulfilled

###

# Study system: human ether-à-go-go-related gene (hERG) potassium channel (human, UniProt Q12809);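 further: peak tail current of the secondary pulse compared with the same well before compound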
# Method: primary screen, population patch clamp on CHO cells stably expressing hERG; higher = less effect of the substance
Hit rate of the full screen: of about 310,000 compounds, about 14,000 (4.5%) showed an effect of 50% or more. Effects have a minus sign here. The sample holds strong results, similar compounds and a random draw of the others, so the mix is not that of the screen.
# key: entry, value: hERG current change (%, negative = inhibition) at 10uM
Numeric answer only, unit % assumed.

1) Cc1ccc2c(c1)c(/C=C/c1cc[n+](C)cc1)c(C)n2C.[I-]; -10.9
2) Cc1ccccc1C(=O)NC1CCN(Cc2nnnn2C2CCCC2)CC1; 3.85

Read off the recorded hERG current change (%, negative = inhibition) at 10uM for CCOC(=O)CNC(=O)c1cnn2cccnc12
2.78

State, in one line, measured hERG current change (%, negative = inhibition) at 10uM of COc1cc(/C=N/NC(=O)Cc2ccccc2)cc(OC)c1OC
8.74

Identify measured hERG current change (%, negative = inhibition) at 10uM associated with COc1cc(C=O)ccc1OCCSc1ccc(C)cc1
-3.13

For the molecule COc1cc(/C=N/NC(=O)C2CCN(CC(O)COCc3ccccc3)CC2)ccc1O (stereo not shown) , give its reported hERG current change (%, negative = inhibition) at 10uM.
-78.1

Specify reported hERG current change (%, negative = inhibition) at 10uM for the molecule shown: O=[N+]([O-])c1ccc(C(O)CSC(=S)N2CCCCC2)cc1 (stereo not shown)
-3.13

Answer with the recorded hERG current change (%, negative = inhibition) at 10uM of Cc1ccc(Cn2c(C(CO)Nc3nc(-c4ccc(F)cc4)cs3)nc3ccccc32)cc1 (stereo not shown) only.
15.4

Assign hERG current change (%, negative = inhibition) at 10uM to the following record: COc1ccc(COCC(O)CN2CCC(C(N)=O)CC2)cc1OC (stereo not shown)
-7.47

Give me measured hERG current change (%, negative = inhibition) at 10uM, please, for this molecule: CCOc1ccc(/C=N/NC(=O)C2CC2)cc1OC
18.3
